Hello, the source for this data is ChEMBL document CHEMBL3091282, in case you need it.

ASSAY INFO: Half life in human HeLa cell cytosolic extract by RP-HPLC analysis
Type: ADME, cell-based, Cytosol
MEASUREMENT KIND: half-life (h)
All answers are understood in h, so give the number only.

CO[C@@H]1[C@H](O)[C@@H](COP(=O)(O)OP(=O)([O-])OP(=O)(O)OC[C@H]2O[C@@H](n3c[n+](C)c4c(=O)[nH]c(N(C)C)nc43)[C@H](O)[C@@H]2O)O[C@H]1n1cnc2c(N)ncnc21    10

Look up half-life: CO[C@@H]1[C@H](O)[C@@H](COP(=O)(O)CP(=O)(O)OP(=O)([O-])OC[C@H]2O[C@@H](n3c[n+](C)c4c(=O)[nH]c(N(C)C)nc43)[C@H](O)[C@@H]2O)O[C@H]1n1cnc2c(N)ncnc21
120

CO[C@@H]1[C@H](O)[C@@H](COP(=O)([O-])OP(=O)(O)CP(=O)(O)OC[C@H]2O[C@@H](n3c[n+](C)c4c(=O)[nH]c(N(C)C)nc43)[C@H](O)[C@@H]2O)O[C@H]1n1cnc2c(N)ncnc21 , same question.
10

====

Listing: half-life of selected compounds
ASSAY INFO: Half life in DMEM by RP-HPLC analysis in presence of fetal bovine serum
Assay type: ADME
DETAILS: cattle, DMEM with fetal bovine serum
All answers are understood in min, so give the number only.

CO[C@@H]1[C@H](O)[C@@H](COP(=O)(O)OP(=O)([O-])OP(=O)(O)OC[C@H]2O[C@@H](n3c[n+](C)c4c(=O)[nH]c(N(C)C)nc43)[C@H](O)[C@@H]2O)O[C@H]1n1cnc2c(N)ncnc21    13

Look up half-life: CO[C@@H]1[C@H](O)[C@@H](COP(=O)(O)CP(=O)(O)OP(=O)([O-])OC[C@H]2O[C@@H](n3c[n+](C)c4c(=O)[nH]c(N(C)C)nc43)[C@H](O)[C@@H]2O)O[C@H]1n1cnc2c(N)ncnc21
35

CO[C@@H]1[C@H](O)[C@@H](COP(=O)([O-])OP(=O)(O)CP(=O)(O)OC[C@H]2O[C@@H](n3c[n+](C)c4c(=O)[nH]c(N(C)C)nc43)[C@H](O)[C@@H]2O)O[C@H]1n1cnc2c(N)ncnc21 , same question.
22
